Can you tell me pIC50 for the items I'm about to list?
Molecular target: Tyrosine-protein kinase JAK3 (Homo sapiens)
Sequence (P52333 whole entry): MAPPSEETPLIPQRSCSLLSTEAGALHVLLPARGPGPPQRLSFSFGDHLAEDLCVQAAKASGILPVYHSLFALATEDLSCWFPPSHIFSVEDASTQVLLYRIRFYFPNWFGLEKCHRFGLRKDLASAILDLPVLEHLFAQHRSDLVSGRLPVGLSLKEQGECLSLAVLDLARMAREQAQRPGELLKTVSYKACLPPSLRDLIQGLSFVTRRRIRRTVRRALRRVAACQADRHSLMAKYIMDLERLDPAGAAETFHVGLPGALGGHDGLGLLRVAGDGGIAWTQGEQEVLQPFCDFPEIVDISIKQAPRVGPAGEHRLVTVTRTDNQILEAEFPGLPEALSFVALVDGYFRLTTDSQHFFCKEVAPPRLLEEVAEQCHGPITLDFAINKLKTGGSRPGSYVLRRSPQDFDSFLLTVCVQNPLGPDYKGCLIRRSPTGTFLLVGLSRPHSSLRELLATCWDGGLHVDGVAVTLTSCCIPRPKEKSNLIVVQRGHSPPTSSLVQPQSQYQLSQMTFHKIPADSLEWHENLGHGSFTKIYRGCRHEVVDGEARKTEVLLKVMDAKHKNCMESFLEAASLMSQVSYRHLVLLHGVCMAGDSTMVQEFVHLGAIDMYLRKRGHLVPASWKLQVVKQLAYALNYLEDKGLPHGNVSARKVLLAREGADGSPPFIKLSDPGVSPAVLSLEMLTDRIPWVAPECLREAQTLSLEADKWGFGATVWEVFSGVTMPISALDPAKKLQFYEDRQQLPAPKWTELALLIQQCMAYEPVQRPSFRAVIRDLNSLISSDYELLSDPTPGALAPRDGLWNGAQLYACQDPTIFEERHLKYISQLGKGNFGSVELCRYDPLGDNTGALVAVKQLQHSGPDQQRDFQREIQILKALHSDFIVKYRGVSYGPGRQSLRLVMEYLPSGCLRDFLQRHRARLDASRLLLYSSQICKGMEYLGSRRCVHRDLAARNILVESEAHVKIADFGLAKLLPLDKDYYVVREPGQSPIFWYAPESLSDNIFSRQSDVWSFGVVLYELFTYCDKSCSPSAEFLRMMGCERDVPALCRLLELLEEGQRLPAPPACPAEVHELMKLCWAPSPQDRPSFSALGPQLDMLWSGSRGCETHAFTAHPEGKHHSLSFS
As a rule, pIC50 stands for the negative log10 of the concentration, concentration in M.

Any idea what its pIC50 is? The compound is "C=CC(=O)Nc1cccc(CNc2c(C(N)=O)cnn3cccc23)c1"
8.89

Please give the result for "NC(=O)c1cnn2cccc2c1NCc1cccc(NC(=O)Cn2sc3ccccc3c2=O)c1" too.
7.52

Please give the result for "CN(C)/C=C(/C#N)C(=O)Nc1cccc(CNc2c(C(N)=O)cnn3cccc23)c1" too.
6.03

Please give the result for "CCC(=O)Nc1cccc(CNc2cc(Nc3ccccc3)ncc2C(N)=O)c1" too.
7.00

----------
As an illustration, consider measured pIC50 for compounds on Tyrosine-protein kinase JAK1 (Homo sapiens, UniProt P23458).
Sequence (P23458 whole entry): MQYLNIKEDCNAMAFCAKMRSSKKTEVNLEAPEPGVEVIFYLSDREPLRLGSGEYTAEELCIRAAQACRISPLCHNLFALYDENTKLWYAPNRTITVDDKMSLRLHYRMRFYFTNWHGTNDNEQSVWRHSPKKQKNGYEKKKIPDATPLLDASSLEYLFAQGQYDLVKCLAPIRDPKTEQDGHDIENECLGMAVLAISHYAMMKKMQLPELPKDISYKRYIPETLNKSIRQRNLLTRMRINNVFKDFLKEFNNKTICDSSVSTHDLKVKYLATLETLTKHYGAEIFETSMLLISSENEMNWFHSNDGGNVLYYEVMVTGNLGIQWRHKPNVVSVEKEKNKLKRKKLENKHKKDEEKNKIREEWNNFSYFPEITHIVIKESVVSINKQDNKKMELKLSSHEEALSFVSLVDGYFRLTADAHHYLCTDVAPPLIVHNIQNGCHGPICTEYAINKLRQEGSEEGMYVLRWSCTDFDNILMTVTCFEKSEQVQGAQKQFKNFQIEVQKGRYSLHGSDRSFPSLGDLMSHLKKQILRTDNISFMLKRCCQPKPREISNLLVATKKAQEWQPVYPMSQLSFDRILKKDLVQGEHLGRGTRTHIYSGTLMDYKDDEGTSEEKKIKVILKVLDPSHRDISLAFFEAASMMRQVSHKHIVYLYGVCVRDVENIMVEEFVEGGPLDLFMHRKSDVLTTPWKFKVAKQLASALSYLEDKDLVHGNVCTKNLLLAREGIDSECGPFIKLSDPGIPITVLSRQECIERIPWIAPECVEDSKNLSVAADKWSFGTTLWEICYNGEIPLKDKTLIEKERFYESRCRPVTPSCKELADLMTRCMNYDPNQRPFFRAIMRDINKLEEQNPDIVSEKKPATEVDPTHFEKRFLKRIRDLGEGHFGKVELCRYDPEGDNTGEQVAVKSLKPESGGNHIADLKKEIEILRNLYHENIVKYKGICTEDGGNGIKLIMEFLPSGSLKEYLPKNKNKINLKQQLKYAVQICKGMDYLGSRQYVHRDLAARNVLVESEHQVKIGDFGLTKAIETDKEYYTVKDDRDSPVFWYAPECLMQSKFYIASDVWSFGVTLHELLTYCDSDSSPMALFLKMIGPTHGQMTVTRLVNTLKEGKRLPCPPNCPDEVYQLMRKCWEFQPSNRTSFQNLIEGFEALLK
As a rule, pIC50 stands for the negative log10 of the concentration, concentration in M.

Enter reported pIC50 observed with Tyrosine-protein kinase JAK1 (Homo sapiens, UniProt P23458) for "NC(=O)c1cnn2cc(-c3ccccc3)cc2c1NCc1ccccc1"
6.67

Please give the result for "N#CCC(=O)Nc1cccc(CNc2c(C(N)=O)cnn3cccc23)c1" too.
6.58

Please give the result for "C=CC(=O)Nc1cccc(CNc2cc(Nc3ccccc3)ncc2C(N)=O)c1" too.
5.96

Please give the result for "NC(=O)c1cnc(Nc2ccccc2)cc1NCc1ccccc1" too.
6.66

Please give the result for "C=CS(=O)(=O)Nc1cccc(CNc2c(C(N)=O)cnn3cccc23)c1" too.
6.01

Every entry's value here was drawn from ChEMBL document CHEMBL4043231.
